# System: plasmatic corticosterone level
# Assay details: Action against stress caused by noise by plasmatic corticosterone level
# Type: in vivo
# Condition set: Rattus norvegicus; oral; groups of 5 rats fasted 24 hours; noise stress one hour later; read-out: DE50 (oral dose which reduced by 50% the level of corticosterone)
Where a name gives a salt, the structure may show the parent alone.
Measurement kind: ED50
Kindly write the number and append the unit.

The cases that follow already have their ED50 on record.
CC(C)c1ccc2ncc(C(=O)NC3=NCCS3)c(O)c2c1 | 50 mg/kg
CCc1ccc2ncc(C(=O)NC3=NCCS3)c(O)c2c1.Cl | 15 mg/kg

query: Recorded ED50 for "Cl.O=C(NC1=NCCS1)c1cnc2ccccc2c1O" , please?
result: 10 mg/kg

query: Recorded ED50 for O=C(NC1=NCCS1)c1cnc2ccc(Cl)cc2c1O [Example 6, hydrochloride] , please?
result: 50 mg/kg

query: Recorded ED50 for Cc1nc2ccccc2c(O)c1C(=O)NC1=NCCS1 [Example 9, hydrochloride] , please?
result: 10 mg/kg

---

# Tested on: receptors for benzodiazepines
# Assay details: Affinity for receptors for benzodiazepines (inhibition of specific bonding of ^3 H diazepam)
# Condition set: ^3 H diazepam 10^-9 M, rat cortex, pH of 7.4
Counter-ions that a name gives are not always drawn.
Entries whose IC50 is below 2 nM take y; entries at or above 2 nM take n.

CC(C)c1ccc2ncc(C(=O)NC3=NCCS3)c(O)c2c1 | n
CCc1ccc2ncc(C(=O)NC3=NCCS3)c(O)c2c1.Cl [Example 2, hydrochloride] | y

query: Please state whether IC50 is below 2 nM for Cc1ccc2ncc(C(=O)NC3=NCCS3)c(O)c2c1 [Example 3, hydrochloride]
result: y

query: Please state whether IC50 is below 2 nM for O=C(NC1=NCCS1)c1cnc2cc(Cl)ccc2c1O [Example 5, hydrochloride]
result: y

query: Please state whether IC50 is below 2 nM for Cc1nc2ccccc2c(O)c1C(=O)NC1=NCCS1 [Example 9, hydrochloride]
result: n

---

# Assay details: Anxiolytic activity (electric shock test, Apelab apparatus, Boissier et al)
# Assay type: in vivo, mice
# Condition set: oral, mice
Counter-ions that a name gives are not always drawn.
Measurement kind: anxiolytic activity (in words)

The cases that follow already have their anxiolytic activity (in words) on record.
COc1ccc2c(O)c(C(=O)NC3=NCCS3)cnc2c1 [Example 8, hydrochloride] | good anxoilytic activity
Cl.O=C(NC1=NCCS1)c1cnc2ccccc2c1O [Example 1] | good anxoilytic activity
O=C(NC1=NCCS1)c1cnc2ccc(Cl)cc2c1O [Example 6, hydrochloride] | good anxoilytic activity
CC(C)c1ccc2ncc(C(=O)NC3=NCCS3)c(O)c2c1 [Example 4] | good anxoilytic activity
CCc1ccc2ncc(C(=O)NC3=NCCS3)c(O)c2c1.Cl [Example 2] | good anxoilytic activity

# ---- query molecule ----
query: Recorded anxiolytic activity (in words) for Cc1nc2ccccc2c(O)c1C(=O)NC1=NCCS1 [Example 9, hydrochloride] , please?
result: good anxoilytic activity

---

# Tested on: receptors for benzodiazepines
# Assay details: Affinity for receptors for benzodiazepines (inhibition of specific bonding of ^3 H diazepam)
# Condition set: ^3 H diazepam 10^-9 M, rat cortex, pH of 7.4
Structures can show the parent of a compound that is named as a salt.
The following compounds are listed with their measured pIC50 values.
Scale: pIC50 equals -log10([C]), with [C] in mol/L.

The cases that follow already have their pIC50 on record.
O=C(NC1=NCCS1)c1cnc2ccc(Cl)cc2c1O [Example 6, hydrochloride] | 9.00
O=C(NC1=NCCS1)c1cnc2ccc(F)cc2c1O [Example 7, hydrochloride] | 8.89
COc1ccc2c(O)c(C(=O)NC3=NCCS3)cnc2c1 [Example 8, hydrochloride] | 8.92

query: What pIC50 appears in the records for this compound with receptors for benzodiazepines? Cl.O=C(NC1=NCCS1)c1cnc2ccccc2c1O [Example 1, hydrochloride]
result: 9.30
